The origin of these recorded values is ChEMBL document CHEMBL3988442.

test system: Wolbachia pipientis; assay: Anti-Wolbachia Cell-Based Screen; format: functional; parameters: scale not given: in the data most compounds retested in dose-response had high values; conditions: 5 µM
Screen size: about 48,000 compounds; about 13,000 (27%) showed an effect of 50% or more. Some of the results follow.
Percent Effect values, listed per item
Reply numerically in %, unit not repeated.

Molecule: CO[C@H]1CN(CC2CC2)[C@@H]2CCCO[C@H]12.O=C(O)C(F)(F)F
Percent Effect, %: 102.7

Molecule: O=C(COc1cccc(F)c1)N1C[C@@H](O)[C@H](N2CCCC2)C1
Percent Effect, %: -2.251

Molecule: CN(C)[C@@H]1CN(C(=O)COc2cccc(F)c2)C[C@H]1O
Percent Effect, %: 81.08

Molecule: CO[C@@H]1CC[C@H]2[C@H]1OCCN2CC1CCOCC1.O=C(O)C(F)(F)F
Percent Effect, %: 4.293

Molecule: O=C(O)C(F)(F)F.O=C1[C@H]2CN(Cc3ccco3)C[C@H]2CN1c1cncnc1
Percent Effect, %: 5.677

Molecule: CO[C@@H]1CN(Cc2scnc2C)[C@@H]2CCCO[C@@H]21.O=C(O)C(F)(F)F.O=C(O)C(F)(F)F
Percent Effect, %: -11.47

Molecule: Cc1cccc(-c2ncc(CNC(C)Cc3ncccc3C)cn2)c1 (stereo unspecified)
Percent Effect, %: -7.429

Molecule: COCCO[C@H]1COCCN(C2CCN(C)CC2)C1
Percent Effect, %: -1.205

# Percent Effect lookup, item Cc1ccc2c(n1)N(CC1CC1)CCN(Cc1ccco1)C2.O=C(O)C(F)(F)F.O=C(O)C(F)(F)F
13.96

Follow-up item: COc1ccccc1CC(=O)N1CCN(Cc2ccco2)C[C@@H]1C
136.4

Follow-up item: Cc1c(C2N3C[C@]4(C)CN2C[C@](C)(C3)C4=O)[nH]c(=O)[nH]c1=O (stereo partly specified)
140.1
